valueType: melting point

Task: # melting point lookup, item C[C@@H](n1nccn1)[C@](O)(Cn1cncn1)c1ccc(F)cc1F
Output: 92 to 95 °C

Task: # input compound: CC1(C)CN(CC2COc3ccccc3C2)c2nc(-c3ccncn3)cc(=O)n2C1 (racemic) ; wanted: its melting point
Output: 84 to 86 °C

Task: Which melting point value belongs to CCOC(=O)c1cnc2snc(C)c2c1N(Cc1cccnc1)S(=O)(=O)c1ccc(OC)cc1 ?
Output: 142 to 144 °C

Task: // melting point lookup, key: C#Cc1ccc2c(c1)C(Cc1ccnc(F)c1)(Cc1ccnc(F)c1)c1cccnc1-2
Output: 139 to 140 °C

Task: Which melting point reading was recorded for the compound Cc1cc(C)cc(-c2cc3cnc(N)nc3nc2N)c1 ?
Output: 298 to 302 °C

Task: Fill in the blank: the reported melting point of COC(=O)c1cc(C#N)ccc1Cl is ____.
Output: 100 to 103 °C

Task: Look up melting point: O=C(NCc1ccc(Cl)cc1)c1cnc2c(I)cc(CN3CCOCC3)cc2c1O
Output: 230 to 233 °C

Task: Reported melting point for CCCCCC(=O)N1C(CCCCC)NC(=O)CC1C(=O)O (stereo not given) : what is it?
Output: 55 to 56 °C

Task: Please give the measured melting point for this compound: C=C1N(c2cccc3ccccc23)C(=O)OC12CCN(CCC=C(c1ccc(F)cc1)c1ccc(F)cc1)CC2
Output: 99 to 101 °C

Task: // query melting point value for entry O=C(O)CCC(=NO)c1ccc(-n2cccn2)cc1
Output: 128 to 130 °C
